Collected set of IC50 measured with Tyrosine-protein kinase ABL1 (Homo sapiens, UniProt P00519) across studies.

CC(NC(=O)c1ccc(C2CC2)c(-c2ccc3nc(Nc4cnn(C5CC5)c4)ncc3c2)c1)c1cccc(C(F)(F)F)c1 (stereo not shown) : > 1 µM

The following molecules each have a reported value; give each one's IC50.
1. Cc1ccc(NC(=O)c2ccc(CN3CCN(CCNC(=O)CCCC[C@@H]4SC[C@@H]5NC(=O)N[C@@H]54)CC3)cc2)cc1Nc1nccc(-c2cccnc2)n1
2. CNS(=O)(=O)c1ccc(Nc2nc(NC3CC3)c3c(S(C)(=O)=O)n[nH]c3n2)cc1
3. Nc1cccc(-c2cnc3[nH]cc(C(=O)c4cc(O)ccc4F)c3c2)c1

## Output
1: 0.146 µM; 2: ≤ 0.01 µM; 3: ≤ 10 µM

###

pIC50: −log10 of the molar value.
Collected set of pIC50 measured with Tyrosine-protein kinase ABL1 (Homo sapiens, UniProt P00519) across studies.

Some entries whose results are on file:
CN1CCN(c2ccc(Nc3nc(NC4CC4)c4c(S(C)(=O)=O)n[nH]c4n3)cc2)CC1 : ≥ 8.00
O=C(c1cc(O)ccc1F)c1c[nH]c2ncc(Br)cc12 : ≥ 5.00
COc1cccc(Cc2c[nH]c3ncc(-c4ccc(N)cc4)cc23)c1 : ≥ 5.00

The record that follows has no pIC50 shown yet.
## Input Fill in: pIC50 on Tyrosine-protein kinase ABL1 (Homo sapiens, UniProt P00519), entry CC1=CC(C)=[N+]2C1=Cc1ccc(CCC(=O)NCCN3CCN(C/C=C/C(=O)N4CCC[C@@H](n5nc(-c6ccc(Oc7ccccc7)cc6)c6c(N)ncnc65)C4)CC3)n1[B-]2(F)F
## Output 6.52

###

Collected set of IC50 measured with Tyrosine-protein kinase ABL1 (Homo sapiens, UniProt P00519) across studies.

Some entries whose results are on file:
COc1cccc(C(=O)C2C=Nc3nccc(-c4cc(F)cc(F)c4)c32)c1 (stereo not shown) : ≤ 10000 nM
CCn1cc(C#Cc2cc(NC(=O)c3cccc(C(F)(F)F)c3)ccc2C)c2c(N)ncnc21 : ≤ 5 nM
Cn1cc(-c2cc(Oc3ccc(NC(=O)Nc4cc(C(F)(F)F)no4)c(F)c3)ccn2)cn1 : < 100 nM
Cc1ccc(C(=O)Nc2cccc(C(F)(F)F)c2)cc1C#Cc1cn(C(C)C)c2ncnc(N)c12 : 5 to 50 nM
CCN1CCN(C(=O)c2cc3n(c2)CCc2c(NC(=O)c4ccccc4Cl)n[nH]c2-3)CC1 : 5100 nM

The following molecules each have a reported value; give each one's IC50.
1. O=C(c1cc(O)ccc1F)c1c[nH]c2ncc(-c3cccnc3)cc12
2. CCSc1n[nH]c2nc(Nc3ccc(N4CCOCC4)cc3)nc(N[C@H]3CC[C@H](N)CC3)c12
3. O=S(=O)(NCc1c[nH]c2ncccc12)c1cc(Cl)c(Cl)s1

## Output
1: ≤ 10000 nM; 2: ≤ 10 nM; 3: ≤ 10000 nM

The following molecules each have a reported value; give each one's IC50.
1. O=C(c1cccc(O)c1)c1c[nH]c2ncccc12
2. Cc1cc(NC(=O)Nc2ccc(Oc3ccnc(-c4cnn(C)c4)c3)cc2F)nn1C(C)(C)C
3. Cc1cn(-c2cc(NC(=O)c3ccc(C)c(C#Cc4cn(C(C)C)c5ncnc(N)c45)c3)cc(C(F)(F)F)c2)cn1
4. Cc1ccc(F)cc1C(=O)c1c[nH]c2ncc(-c3cccc(N)c3)cc12
5. Cn1cc(-c2cc(Oc3ccc(NC(=O)Nc4cc(C(C)(C)C)no4)c(F)c3)ccn2)cn1

## Output
["≤ 10000 nM", "< 100 nM", "5 to 50 nM", "≤ 10000 nM", "< 100 nM"]
